- Tested on: NCI-H460 lung
- assay.remarks: NCI tumour cell line growth inhibition, 48 h

{"columns": ["compound", "target.or.test.system", "TGI"],
 "data": [
  ["COc1ccc(OC)c(CC(=O)c2ccc(O)c(C(=O)NCCc3ccc(F)cc3)c2)c1", "NCI-H460 lung", "34 µM"],
  ["O=C1c2cc([N+](=O)[O-])cnc2S(=O)(=O)N1c1ccc(Oc2ccccc2)cc1", "NCI-H460 lung", "> 100 µM"],
  ["Clc1ccc(C2=NN(c3ccccc3)C3c4cc(Br)ccc4OCC23)cc1 (stereo not given)", "NCI-H460 lung", "> 100 µM"],
  ["CC(C)=CCc1c(O)c(CC=C(C)C)c2oc3c(c(=O)c2c1O)C(C=C(C)C)Oc1cc(O)ccc1-3 (stereo not given)", "NCI-H460 lung", "17 µM"],
  ["C[N+](C)(C)C(Cc1c[nH]c(=S)[nH]1)C(=O)O (stereo not given)", "NCI-H460 lung", "> 100 µM"],
  ["Brc1ccc(C2(N3CCCCC3)CCCCC2)s1", "NCI-H460 lung", "84.8 µM"],
  ["CCCCCNC(=O)C1C(=O)N(CCCCC)C(=O)/C1=N\\N (stereo not given)", "NCI-H460 lung", "> 100 µM"],
  ["CC1(C)CCC(CN2CCN(c3ccc(C(=O)NS(=O)(=O)c4ccc(NCC5CCOCC5)c([N+](=O)[O-])c4)c(Oc4cnc5[nH]ccc5c4)c3)CC2)=C(c2ccc(Cl)cc2)C1", "NCI-H460 lung", "8.86 µM"],
  ["c1ncc(C23C4C5C6C4C2C6C53)[nH]1 (stereo not given)", "NCI-H460 lung", "> 100 µM"],
  ["Cn1cc(-c2nonc2-c2cn(C)c3ccc(Br)cc23)c2ccccc21", "NCI-H460 lung", "> 100 µM"]
]}
